- protocol_text: Blocker Index (BI), expert graders, isovaleric acid malodorous swatch
- Parameters: key: Blocker Index, 0–3 scale anchored by reference swatches (0 = clean swatch)
- condition: Conc 10 ppm
Each entry below lists one item and its recorded BI value.
Output spec: single numeric token, no unit.

Please report the recorded BI for CC1(C)C2CCC3(C2)C1C(=O)CCC3(C)C (stereo not shown) [Material 1149] .
1.5

Endpoint output: BI of CC(CCO)CCc1ccccc1 (stereo not shown) [Material 962] . Value?
2.3

Reported BI, molecule CCCCCCCCCCCCCCCC(=O)OC [Material 109] : ____
2.0

Value lookup for BI; key = COC(=O)OC1CC/C=C\CCC1 (stereo not shown) [Material 1139]
2.0

Entry under review: CC(=O)OC1CC2CC1C1CC=CC21 (stereo not shown) [Material 281] . Reported BI?
2.0

Given the entry O=C1CCC2CCCCC2O1 (stereo not shown) [3,4,4a,5,6,7,8,8a-octahydrochromen-2-one] , report its measured BI.
2.0

May I ask what BI has been recorded for CCC(O)COC1CCCCC1C(C)(C)C (stereo not shown) [Material 677] ?
2.3

Param item = CC(=O)OCCCCCCC(C)C [Material 204] ; retrieve measured BI.
2.0

Given the molecule CC(C)(C)C1CCCCC1 [4-tert-butyl cyclohexane] , what is its reported BI?
2.0

Find the recorded BI belonging to CC1(C)CCc2ccc(CCC=O)cc21 [Material 261] and report it.
1.8
